System: SK-OV-3
Assay: Cytotoxicity against human SKOV3 cells by sulforhodamine B assay
Type: functional, cell-based
measurement.type: IC50 (µM)
Write it as a number; the unit µM goes unstated.

IC50 reported for this compound `C=C1C[C@]23C[C@@]1(O)CC[C@H]2c1cc2c(C(=O)O)coc2c(C)c1[C@@H]3C(=O)O` : 4.83

====

System: A549
Assay: Cytotoxicity against human A549 cells by sulforhodamine B assay
Format: functional, cell-based
measurement.type: IC50 (µM)
Reply numerically in µM, unit not repeated.

Lookup result for `C=C1C[C@]23C[C@@]1(O)CC[C@H]2c1cc2c(C(=O)O)coc2c(C)c1[C@@H]3C(=O)O` ; measured IC50: 15.7
